Kindly state differentiation response for each of the entries shown.
assay: AML differentiation inducers, ER-HoxA9 marrow cells – cell-based, GFP/MAC1 double positive, flow cytometry, validation set, primary screen (AID 588685); conditions: hits give high values, normalized: vehicle 0, fulvestrant 100;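 further: compound exposure lasts four days before antibody staining and flow analysis; 0% = DMSO wells and 100% = 5 µM fulvestrant positive control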
Provide the reading as a plain figure in %.

-- ask Please give the documented differentiation response of Cc1nc2ccccc2n1CC(O)Cn1c2ccccc2c2ccccc21 (centres undefined)
-- reply -1.64

-- ask Please give measured differentiation response of the following entry: CC12CCC(C(=O)NCc3ccccn3)(OC1=O)C2(C)C (centres undefined)
-- reply 5.67

-- ask Respond only with differentiation response recorded for NC(=O)C1CCCNC1 (centres undefined)
-- reply 8.59

-- ask Read off the recorded differentiation response for CC(NC(=O)c1ccc(N2CCNCC2)c([N+](=O)[O-])c1)C12CC3CC(CC(C3)C1)C2 (centres undefined)
-- reply -23.2

====

Provide the recorded differentiation response for the entries that follow.
test: AML differentiation inducers, ER-HoxA9 marrow cells – cell-based, GFP/MAC1 double positive, flow cytometry, validation set, primary screen (AID 588685); settings: hits give high values, normalized: vehicle 0, fulvestrant 100;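 further: compound exposure lasts four days before antibody staining and flow analysis; 0% = DMSO wells and 100% = 5 µM fulvestrant positive control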
Square brackets hold non-standard residues; d marks the D form. Peptide text beside a SMILES is read from it. ξ: configuration not given here. ξV = CC(C)C(N)C(=O)O
Return type: number; implicit unit %.

-- ask Query differentiation response for COc1ccc(CN2CCCCC2C(=O)Nc2ccc(OC)c(OCC(C)C)c2)cc1OC (centres undefined)
-- reply 2.2

-- ask Provide only the value of recorded differentiation response for CC(=O)NC(C(=O)NCC(N)=O)C(C)C (centres undefined) (Ac-[ξV]-Gly-NH2)
-- reply 13.9

-- ask Give the reported value of differentiation response for this record: CC(C)C12CN3CC(C(C)C)(CN(C1)C3c1ccccc1)C2O (centres undefined)
-- reply -0.06

-- ask Tell me its differentiation response given COc1cc(C(=O)NCCc2c[nH]c3ccccc23)ccc1OCc1c(C)noc1C as the entry.
-- reply 10.4

-- ask Supply differentiation response value. Item: CCC(=O)Oc1ccc(C(=O)Nc2ccc([N+](=O)[O-])cc2)cc1
-- reply -6.55

-- ask Identify measured differentiation response corresponding to Clc1ccc2c(c1)[C@H]1OCC[C@H]1[C@@H](c1ccco1)N2
-- reply -16.3

-- ask Using known records, supply differentiation response for CN(C)CCC(c1ccccc1)c1ccccn1 (centres undefined)
-- reply 8.19

-- ask Look up and report measured differentiation response for this entry: Cc1ccc(Cl)c(OCCCN(C)Cc2ccccc2)c1
-- reply -6.96

-- ask Kindly indicate its recorded differentiation response. Item: CCc1cc(=O)oc2cc(OCc3nn[nH]n3)ccc12
-- reply 0.24

-- ask Tell me its differentiation response given CCCCC[C@H](O)/C=C/C1=C(CCCCCCC(=O)O)C(=O)CC1 as the entry.
-- reply -8.96

-- ask Please report the measured differentiation response for CC(=O)Nc1ccc(CN2CCN(C3CCCCC3)C(CCO)C2)cc1 (centres undefined)
-- reply -10.9

-- ask Note differentiation response for the compound shown: CN1CCN2c3ccccc3Cc3ccccc3C2C1 (centres undefined)
-- reply -0.82

-- ask Provide only the value of recorded differentiation response for O=c1nc2n(c3c1oc1ccccc13)Cc1ccccc1-2
-- reply -6.03

-- ask Check the records and state differentiation response for COc1ccc2cc(C(=O)Nc3ccc(S(N)(=O)=O)cc3)sc(=O)c2c1OC
-- reply -9.01

====

molecular target: ATP-binding cassette sub-family B member 6 (Homo sapiens); experiment: blockers of ABCB6-driven porphyrin uptake – K562-ABCB6 cells, flow cytometry, validation set, pilot screen (AID 588550); conditions: K562-ABCB6 porphyrin accumulation, 1 h, at 10 µM, hits give high values;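 further: 0% = DMSO wells and 100% = benzethonium chloride 70 µM positive control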
Kindly state inhibition for each of the entries shown.
Number in %, nothing else.

-- ask Given Cc1cnc(N)c2c(=O)oc3ccccc3c12 , report its inhibition on ATP-binding cassette sub-family B member 6 (Homo sapiens).
-- reply -2

-- ask Using ATP-binding cassette sub-family B member 6 (Homo sapiens) as the test system, report measured inhibition of Cc1cccc2c(=O)n3c(nc12)CCCCC3 .
-- reply 2

-- ask Give inhibition; test system ATP-binding cassette sub-family B member 6 (Homo sapiens); compound N/C(=N\OC(=O)c1ccc(Br)o1)c1ccccn1
-- reply 6

-- ask Report value only: inhibition, ATP-binding cassette sub-family B member 6 (Homo sapiens), CC(C)CC(NC(=O)c1cccc(Cl)c1)C(=O)O (stereo not given)
-- reply 2

-- ask Please respond with reported inhibition (system ATP-binding cassette sub-family B member 6 (Homo sapiens)) for COc1ccc(C2CC(c3ccc([N+](=O)[O-])cc3)=NN2C(=O)c2ccccc2)cc1OC (stereo not given) .
-- reply 0

-- ask Give inhibition for COc1c(C=O)c(CCN(C)C(=O)c2ccc(F)cc2)cc2c1OCO2 tested on ATP-binding cassette sub-family B member 6 (Homo sapiens).
-- reply -2

-- ask Under ATP-binding cassette sub-family B member 6 (Homo sapiens), report inhibition for C[C@H]1C[C@@H]2[C@H]([C@@H](O)C[C@@]3(C)[C@H]2CC[C@]3(O)C(=O)CO)[C@@]2(C)C=CC(=O)C=C12
-- reply 13

-- ask Fetch value of inhibition on ATP-binding cassette sub-family B member 6 (Homo sapiens) for Cc1cccc(CN2CCN(C(c3ccccc3)c3ccc(Cl)cc3)CC2)c1 (stereo not given) .
-- reply -1

-- ask Give reported inhibition for O=C(NO)c1ccccc1O (ATP-binding cassette sub-family B member 6 (Homo sapiens))
-- reply 9

-- ask Tell me inhibition of CCOc1ccc2nc(NC(=O)NC3CCCCC3)sc2c1 when tested on ATP-binding cassette sub-family B member 6 (Homo sapiens).
-- reply -4

-- ask Recall the reported inhibition of Cc1ccc2occ(C(=O)c3ccco3)c(=O)c2c1 on ATP-binding cassette sub-family B member 6 (Homo sapiens) and write it down.
-- reply 1

-- ask Jot down inhibition (ATP-binding cassette sub-family B member 6 (Homo sapiens)) of Cc1ccc(C2=NOC(=O)/C2=C\C=C\c2ccccc2)cc1 .
-- reply -16

-- ask Please report inhibition with ATP-binding cassette sub-family B member 6 (Homo sapiens) for item O=C(O)c1ccccc1Nc1cccc(C(F)(F)F)c1 .
-- reply 112

-- ask Provide inhibition, system ATP-binding cassette sub-family B member 6 (Homo sapiens), entry Cc1cccc2c(C(=O)O)cc(-c3cccnc3)nc12
-- reply -3

-- ask Enter inhibition (test system ATP-binding cassette sub-family B member 6 (Homo sapiens)) for O=C(Cc1ccccc1)NNC(=O)Cc1ccccc1
-- reply 2

-- ask Write inhibition of COc1cccc(CC2CC(=O)N(c3ccc4c(C)cc(=O)oc4c3)C2=O)c1 (stereo not given) ; system used: ATP-binding cassette sub-family B member 6 (Homo sapiens)
-- reply 4

-- ask Quote ATP-binding cassette sub-family B member 6 (Homo sapiens) inhibition for entry C[C@@H]1C[C@H](Nc2ccccc2)c2ccccc2N1C(=O)c1cccnc1 .
-- reply 0

-- ask Jot down inhibition (ATP-binding cassette sub-family B member 6 (Homo sapiens)) of COc1cccc(-n2cc(CNCc3c(C(=O)N(C)C)nc4ccc(Cl)cn34)cn2)c1 .
-- reply 19

-- ask Look up ATP-binding cassette sub-family B member 6 (Homo sapiens) data: inhibition of O=c1c2[nH]c3ccccc3c2ncn1CCC1=CCCCC1 , then report it.
-- reply 13

-- ask With ATP-binding cassette sub-family B member 6 (Homo sapiens) as the test system, provide measured inhibition for this compound: COc1ccc(OC(C)C(=O)Nc2ccccc2F)cc1 (stereo not given)
-- reply 8

-- ask Send back ATP-binding cassette sub-family B member 6 (Homo sapiens) inhibition of O=C(CCCn1c(=O)oc2ccccc21)N1CCN(c2ccc(F)cc2)CC1 only.
-- reply 9

-- ask Specify inhibition for COc1cc2c(cc1NCc1ccc3c(c1)OCO3)oc1ccccc12 , system ATP-binding cassette sub-family B member 6 (Homo sapiens).
-- reply 0

-- ask Look up and report measured inhibition (ATP-binding cassette sub-family B member 6 (Homo sapiens)) for the following compound: C/C(CCc1oc2ccc(Cl)cc2c1-c1ccc(C)o1)=N\O
-- reply -3

-- ask Enter recorded inhibition with ATP-binding cassette sub-family B member 6 (Homo sapiens) for CC(=O)CCc1c(C)c2cccc(C)c2[nH]c1=O here.
-- reply 9

-- ask Output reported inhibition of the compound COc1ccc(OCc2cccc(C(=O)NN)c2)cc1 on ATP-binding cassette sub-family B member 6 (Homo sapiens).
-- reply 3

-- ask Give inhibition only, for COc1ccc(C(Cl)=C(c2ccc(OC)cc2)c2ccc(OC)cc2)cc1 , using ATP-binding cassette sub-family B member 6 (Homo sapiens) data.
-- reply 7

-- ask # assay system ATP-binding cassette sub-family B member 6 (Homo sapiens): give inhibition of Cc1oncc1C(=O)Nc1ccc(C(F)(F)F)cc1
-- reply -7

-- ask State, for ATP-binding cassette sub-family B member 6 (Homo sapiens), measured inhibition of the compound listed here: COc1cccc(OCC(O)CO)c1 (stereo not given)
-- reply 1

-- ask Provide measured inhibition on ATP-binding cassette sub-family B member 6 (Homo sapiens) for CC(C)=CCC(C)(C)/C=N/NC(N)=O please.
-- reply 4

-- ask Output reported inhibition of the compound CCOc1cc2c3c(c1)C(C)=CC(C)(C)N3C(=O)C2=O on ATP-binding cassette sub-family B member 6 (Homo sapiens).
-- reply 4
